test: Retention time of the compound by RP-HPLC analysis; format: physicochemical
Peptide text beside a SMILES is read from it. * marks the point of attachment. X3 = C[C@@H](O)[C@H](NC(=O)[C@@H]1CCCN1C(=O)[C@@H](NC(=O)[C@H]1O[C@@H]1C(=O)*)[C@@H](C)O)C(N)=O; X10 = CC(C)C[C@H](NC(=O)[C@@H]1O[C@H]1C(=O)*)C(=O)N[C@@H](CO)C(=O)N[C@H](C(N)=O)[C@@H](C)O; X1 = CC(C)C[C@H](NC(=O)[C@H]1O[C@@H]1C(=O)*)C(=O)N1CCC[C@H]1C(=O)N[C@H](C(N)=O)[C@@H](C)O; X2 = CC(C)C[C@H](NC(=O)[C@@H]1O[C@H]1C(=O)*)C(=O)N1CCC[C@H]1C(=O)N[C@H](C(N)=O)[C@@H](C)O
ATTRIBUTE MEASURED: Retention_time (min)

| MOLECULE | DISPLAY UNIT | Retention_time |
| --- | --- | --- |
| CC(C)C[C@H](NC(=O)[C@@H]1O[C@H]1C(=O)N[C@@H](CCCNC(=N)N)C(=O)N1CCC[C@H]1C(=O)N1CCC[C@H]1C(=O)N1CCC[C@H]1C(=O)N[C@@H](CO)C(N)=O)C(=O)N1CCC[C@H]1C(=O)N[C@H](C(N)=O)[C@@H](C)O (X2-RPPPS-NH2) | min | 11.1 |
| CC(C)C[C@H](NC(=O)[C@H]1O[C@@H]1C(=O)N[C@@H](CCCNC(=N)N)C(=O)N1CCC[C@H]1C(=O)N1CCC[C@H]1C(=O)N1CCC[C@H]1C(=O)N[C@@H](CO)C(N)=O)C(=O)N1CCC[C@H]1C(=O)N[C@H](C(N)=O)[C@@H](C)O (X1-RPPPS-NH2) | min | 11.1 |
| CC(C)C[C@H](NC(=O)[C@@H]1O[C@H]1C(=O)N[C@@H](CO)C(=O)N1CCC[C@H]1C(=O)N1CCC[C@H]1C(=O)N1CCC[C@H]1C(=O)N[C@@H](CO)C(N)=O)C(=O)N1CCC[C@H]1C(=O)N[C@H](C(N)=O)[C@@H](C)O (X2-SPPPS-NH2) | min | 10.9 |
| CC(C)C[C@H](NC(=O)[C@H]1O[C@@H]1C(=O)N[C@H](C(=O)N1CCC[C@H]1C(=O)N1CCC[C@H]1C(=O)N1CCC[C@H]1C(=O)N[C@@H](CO)C(N)=O)[C@@H](C)O)C(=O)N1CCC[C@H]1C(=O)N[C@H](C(N)=O)[C@@H](C)O (X1-TPPPS-NH2) | min | 11 |
| C[C@@H](O)[C@H](NC(=O)[C@@H]1CCCN1C(=O)[C@@H](NC(=O)[C@H]1O[C@@H]1C(=O)N[C@@H](CO)C(=O)N1CCC[C@H]1C(=O)N1CCC[C@H]1C(=O)N1CCC[C@H]1C(=O)N[C@@H](CO)C(N)=O)[C@@H](C)O)C(N)=O (X3-SPPPS-NH2) | min | 9.7 |
| CC(C)C[C@H](NC(=O)[C@@H]1O[C@H]1C(=O)N[C@@H](CO)C(=O)N1CCC[C@H]1C(=O)N1CCC[C@H]1C(=O)N1CCC[C@H]1C(=O)N[C@@H](CO)C(N)=O)C(=O)N[C@@H](CO)C(=O)N[C@H](C(N)=O)[C@@H](C)O (X10-SPPPS-NH2) | min | 10.2 |
| CC(C)C[C@H](NC(=O)[C@@H]1O[C@H]1C(=O)N[C@H](C(=O)N1CCC[C@H]1C(=O)N1CCC[C@H]1C(=O)N1CCC[C@H]1C(=O)N[C@@H](CO)C(N)=O)[C@@H](C)O)C(=O)N1CCC[C@H]1C(=O)N[C@H](C(N)=O)[C@@H](C)O (X2-TPPPS-NH2) | min | 12.3 |
| CC(C)C[C@H](NC(=O)[C@@H]1O[C@H]1C(=O)N[C@@H](CO)C(=O)N[C@@H](CCC(N)=O)C(=O)N1CCC[C@H]1C(=O)N1CCC[C@H]1C(=O)N[C@@H](CO)C(N)=O)C(=O)N1CCC[C@H]1C(=O)N[C@H](C(N)=O)[C@@H](C)O (X2-SQPPS-NH2) | min | 10.7 |
| CC(C)C[C@H](NC(=O)[C@@H]1O[C@H]1C(=O)N[C@@H](CO)C(=O)N[C@@H](CO)C(=O)N1CCC[C@H]1C(=O)N1CCC[C@H]1C(=O)N[C@@H](CO)C(N)=O)C(=O)N1CCC[C@H]1C(=O)N[C@H](C(N)=O)[C@@H](C)O (X2-SSPPS-NH2) | min | 11.9 |
